# Study system: GTP-KRAS-G12D:SOS1 (Homo sapiens (Human), UniProt P01116, G12D)
# Sequence (P01116-2 other isoform, or with tags, fused parts or gaps G12D): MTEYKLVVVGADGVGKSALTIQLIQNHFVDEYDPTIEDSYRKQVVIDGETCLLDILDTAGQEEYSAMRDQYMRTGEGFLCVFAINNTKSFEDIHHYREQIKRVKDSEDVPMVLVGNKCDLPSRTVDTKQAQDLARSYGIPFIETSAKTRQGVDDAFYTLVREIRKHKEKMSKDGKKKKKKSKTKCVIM
# Protocol notes: GTP-KRAS-G12D:SOS1 binding inhibition
pIC50: −log10 of the molar value. Where a name gives a salt, the structure may show the parent alone.
Decision: pIC50 >= 6 yields y, all other cases yield n.

Compound | Assigned class
CCc1cccc2cc(O)cc(-c3c(F)c4c5c(nc(OC[C@]67C[C@@H](F)CN6C[C@H](CO)C7)nc5c3F)N3CC5CCC(N5)C3CO4)c12 (single isomer, unassigned) [Compound 21a, dihydrochloride] | n
CCc1cccc2cc(O)cc(-c3c(F)c4c5c(nc(OC[C@]67C[C@@H](F)CN6C[C@@H](CN6CCCCC6)C7)nc5c3F)N3CC5CCC(N5)C3CO4)c12 (single isomer, unassigned) [Compound 27b, trihydrochloride] | y
O=C1CC2(CCc3c(nc(OC[C@@]45CCCN4C[C@H](F)C5)nc3N3C[C@H]4CC[C@@H](C3)N4)C2)c2cc(O)cc(Cl)c21 (single isomer, unassigned) [Compound 6a, dihydrochloride] | y
Cc1cc(N)nc(-c2c(F)c3c4c(nc(OC[C@@]56CCCN5C[C@H](F)C6)nc4c2F)N2C[C@@H]4CCC(N4)[C@H]2CCO3)c1C(F)(F)F (single isomer, unassigned) [Compound 26b] | y
Nc1cc2ccccc2c(-c2c(F)c3c4c(nc(OC[C@@]56CCCN5C[C@H](F)C6)nc4c2F)N2CC4CCC(N4)C2CO3)n1 (some centres unmarked) [Compound 22] | y

====

Measured IC50 of individual entries
# Study system: GTP-KRAS-G12D:SOS1 (Homo sapiens (Human), UniProt P01116, G12D)
# Protocol notes: GTP-KRAS-G12D:SOS1 binding inhibition
# Run parameters: dihydrochloride
# Experimental: The IC50 of the compounds was fitted using a nonlinear regression equation with GraphPad Prism 8. The results are presented in Table 2: • Negative control: DMSO • Positive control: 100 μM BI-2852 The following nonlinear fitting formula was used to obtain the IC50 (half-maximal inhibitory concentration) of the compounds: [formula] • X: logarithm of the compound concentration • Y: 665/615 Ratio
Structures can show the parent of a compound that is named as a salt.

Compound | IC50 (nM)
CC1CC2(CCc3c(nc(OC[C@@]45CCCN4C[C@H](F)C5)nc3N3C[C@H]4CC[C@@H](C3)N4)C2)c2cc(O)cc(Cl)c21 (single isomer, unassigned) [Compound 7aa, dihydrochloride] | 9.95
CC1CC2(CCc3c(nc(OC[C@@]45CCCN4C[C@H](F)C5)nc3N3C[C@H]4CC[C@@H](C3)N4)C2)c2cc(O)cc(Cl)c21 (single isomer, unassigned) [Compound 7ab, dihydrochloride] | 17.4

====

# Study system: GTP-KRAS-WT:SOS1 (Homo sapiens (Human))
# Sequence (P01116-2 other isoform, or with tags, fused parts or gaps): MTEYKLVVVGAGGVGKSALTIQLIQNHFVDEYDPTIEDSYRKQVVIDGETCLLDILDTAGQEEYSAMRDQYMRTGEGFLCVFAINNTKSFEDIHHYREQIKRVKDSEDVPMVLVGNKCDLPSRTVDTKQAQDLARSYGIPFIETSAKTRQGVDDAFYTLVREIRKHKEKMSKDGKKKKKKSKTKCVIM
# Protocol notes: KRAS_WT and SOS1 binding inhibition (KRAS-WT/SOS1 binding kit, 665/615 ratio)
# Run parameters: GTP 10 μM; dihydrochloride
Structures can show the parent of a compound that is named as a salt.
The compounds listed here are annotated with their IC50.
Readout kind: IC50

Compound | Study system | Value observed
CC1CC2(CCc3c(nc(OC[C@@]45CCCN4C[C@H](F)C5)nc3N3C[C@H]4CC[C@@H](C3)N4)C2)c2cc(O)cc(Cl)c21 (single isomer, unassigned) [Compound 7aa, dihydrochloride] | GTP-KRAS-WT:SOS1 (Homo sapiens (Human)) | 233 nM
CC1CC2(CCc3c(nc(OC[C@@]45CCCN4C[C@H](F)C5)nc3N3C[C@H]4CC[C@@H](C3)N4)C2)c2cc(O)cc(Cl)c21 (single isomer, unassigned) [Compound 7ab, dihydrochloride] | GTP-KRAS-WT:SOS1 (Homo sapiens (Human)) | 582 nM
